Listed below: Cleavage (%) by ACE2, 10 μM values for each entry.
- Assayed System: ACE2 (Homo sapiens)
- Measurement Description: LC–MS ACE2 proteolytic cleavage assay
- Assay type: in vitro ADME
- Test Context: peptide 10 μM incubated with ACE2 at 37 °C, typically 4-5 h (5 h); LC–MS
Ends that are not written are not given here.
Measured Metric: Cleavage (%) by ACE2, 10 μM

- Substance: "DRVYVYPF"
  Meas Value: "9 ± 0.3%"
- Substance: "DRVYIYβPF"
  Meas Value: "0 ± 0%"
- Substance: "DRVYIYPβF"
  Meas Value: "0 ± 0%"
- Substance: "DRVYIYPF"
  Meas Value: "18 ± 1.2%"
- Substance: "DRVYVYβPF"
  Meas Value: "0 ± 0%"

====

- Assayed System: AT1R (Rattus norvegicus, UniProt P25095)
- Construct: HA; expressed in transfected cells
- Sequence (P25095 whole entry): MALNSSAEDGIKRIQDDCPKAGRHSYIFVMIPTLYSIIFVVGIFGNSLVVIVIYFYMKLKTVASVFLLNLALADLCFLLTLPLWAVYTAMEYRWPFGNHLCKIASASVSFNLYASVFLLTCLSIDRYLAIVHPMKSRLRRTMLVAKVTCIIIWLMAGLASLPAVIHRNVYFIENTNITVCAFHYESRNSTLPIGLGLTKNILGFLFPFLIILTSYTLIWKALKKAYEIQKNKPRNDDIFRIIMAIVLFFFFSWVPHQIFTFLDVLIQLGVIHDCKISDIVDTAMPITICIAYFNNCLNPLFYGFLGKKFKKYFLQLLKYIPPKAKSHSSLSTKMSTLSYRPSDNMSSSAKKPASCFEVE
- Measurement Description: Whole cell competition binding with [125I]-Ang II, AT1R-transfected HEK-293 cells
- Test Context: relative binding, displacement of 125I-Ang II in AT1R-transfected HEK-293 cells; 100 nM (Table 6)
# reported AT1R binding (%); entries follow

- Substance: "DRVYVYPβF"
  AT1R binding (%): "0%"
- Substance: "DRVYVYβPF"
  AT1R binding (%): "0%"
- Substance: "DRVYIYPβF"
  AT1R binding (%): "30%"
- Substance: "DRVYIYβPF"
  AT1R binding (%): "0%"

====

- Assayed System: ACE2 (Homo sapiens, UniProt Q9BYF1)
- Sequence (Q9BYF1 18-805, species assumed): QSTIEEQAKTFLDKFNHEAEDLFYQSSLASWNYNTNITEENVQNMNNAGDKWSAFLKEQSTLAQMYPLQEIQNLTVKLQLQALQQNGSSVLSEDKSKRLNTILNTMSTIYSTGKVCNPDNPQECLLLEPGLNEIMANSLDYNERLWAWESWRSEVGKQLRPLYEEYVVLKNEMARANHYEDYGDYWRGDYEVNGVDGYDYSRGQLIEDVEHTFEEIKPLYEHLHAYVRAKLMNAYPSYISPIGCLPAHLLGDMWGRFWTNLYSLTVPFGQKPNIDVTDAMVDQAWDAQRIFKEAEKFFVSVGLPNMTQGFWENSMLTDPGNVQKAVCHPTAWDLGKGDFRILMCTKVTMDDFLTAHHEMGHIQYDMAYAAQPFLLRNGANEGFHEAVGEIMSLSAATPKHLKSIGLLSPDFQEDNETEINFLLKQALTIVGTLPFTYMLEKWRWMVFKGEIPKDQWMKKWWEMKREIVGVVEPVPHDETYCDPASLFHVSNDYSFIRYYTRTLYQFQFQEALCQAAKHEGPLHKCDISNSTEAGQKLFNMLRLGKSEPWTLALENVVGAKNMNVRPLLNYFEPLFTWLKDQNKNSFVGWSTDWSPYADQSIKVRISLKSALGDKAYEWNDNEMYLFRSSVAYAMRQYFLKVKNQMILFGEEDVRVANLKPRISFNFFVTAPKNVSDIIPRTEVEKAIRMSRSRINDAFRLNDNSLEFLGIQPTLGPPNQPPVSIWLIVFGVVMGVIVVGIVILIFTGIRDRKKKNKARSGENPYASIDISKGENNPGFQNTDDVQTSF
- Measurement Description: ACE2 quenched fluorescence substrate (QFS) inhibition assay
- Format: biochemical
- Test Context: peptide 100 μM; 50 uM QFS MCA-APK(DNP)-OH, 1 M NaCl, 100 mM Tris-Cl pH 6.5, 37 °C, 1 h, fluorescence; triplicate; read-out: ACE2 inhibition of single substitution analogs of the C-terminal of AngII (Table 1)
Peptide text beside a SMILES is read from it.
# maps each entry to its inhibition at 100 µM

- Molecule: "N[C@@H](Cc1c[nH]cn1)C(=O)N[C@@H](Cc1c[nH]cn1)C(=O)N1CCC[C@H]1C(=O)N[C@@H](Cc1ccccc1)C(=O)O [HHPF] (H-HHPF-OH)"
  Assayed System: "ACE2 (Homo sapiens, UniProt Q9BYF1)"
  inhibition at 100 µM: "12%"
- Molecule: "N[C@@H](Cc1ccccc1)C(=O)N[C@@H](Cc1c[nH]cn1)C(=O)N1CCC[C@H]1C(=O)N[C@@H](Cc1ccccc1)C(=O)O [FHPF] (H-FHPF-OH)"
  Assayed System: "ACE2 (Homo sapiens, UniProt Q9BYF1)"
  inhibition at 100 µM: "48%"
- Molecule: "CC[C@H](C)[C@H](N)C(=O)N[C@@H](Cc1c[nH]cn1)C(=O)N[C@H](C(=O)N[C@@H](Cc1ccccc1)C(=O)O)[C@@H](C)CC [IHIF] (H-IHIF-OH)"
  Assayed System: "ACE2 (Homo sapiens, UniProt Q9BYF1)"
  inhibition at 100 µM: "44%"
- Molecule: "CC[C@H](C)[C@H](N)C(=O)N[C@H](C(=O)N1CCC[C@H]1C(=O)N[C@@H](Cc1ccccc1)C(=O)O)C(C)C [IVPF] (H-IVPF-OH)"
  Assayed System: "ACE2 (Homo sapiens, UniProt Q9BYF1)"
  inhibition at 100 µM: "28%"
- Molecule: "CC[C@H](C)[C@H](N)C(=O)N[C@@H](Cc1c[nH]cn1)C(=O)N1CCC[C@H]1C(=O)NCC(=O)O [IHPG] (H-IHPG-OH)"
  Assayed System: "ACE2 (Homo sapiens, UniProt Q9BYF1)"
  inhibition at 100 µM: "41%"
- Molecule: "N[C@@H](Cc1ccc(O)cc1)C(=O)N[C@@H](Cc1c[nH]cn1)C(=O)N1CCC[C@H]1C(=O)N[C@@H](Cc1ccccc1)C(=O)O [YHPF] (H-YHPF-OH)"
  Assayed System: "ACE2 (Homo sapiens, UniProt Q9BYF1)"
  inhibition at 100 µM: "34%"
- Molecule: "CC[C@H](C)[C@H](N)C(=O)N[C@@H](Cc1c[nH]cn1)C(=O)N1CCC[C@H]1C(=O)N[C@@H](CC(C)C)C(=O)O [IHPL] (H-IHPL-OH)"
  Assayed System: "ACE2 (Homo sapiens, UniProt Q9BYF1)"
  inhibition at 100 µM: "48%"
- Molecule: "CC[C@H](C)[C@H](N)C(=O)N[C@@H](Cc1c[nH]cn1)C(=O)N[C@@H](Cc1ccc(O)cc1)C(=O)N[C@@H](Cc1ccccc1)C(=O)O [IHYF] (H-IHYF-OH)"
  Assayed System: "ACE2 (Homo sapiens, UniProt Q9BYF1)"
  inhibition at 100 µM: "1%"
- Molecule: "NCC(=O)N[C@@H](Cc1c[nH]cn1)C(=O)N1CCC[C@H]1C(=O)N[C@@H](Cc1ccccc1)C(=O)O [GHPF] (H-GHPF-OH)"
  Assayed System: "ACE2 (Homo sapiens, UniProt Q9BYF1)"
  inhibition at 100 µM: "0%"
- Molecule: "N[C@@H](Cc1c[nH]c2ccccc12)C(=O)N[C@@H](Cc1c[nH]cn1)C(=O)N1CCC[C@H]1C(=O)N[C@@H](Cc1ccccc1)C(=O)O [WHPF] (H-WHPF-OH)"
  Assayed System: "ACE2 (Homo sapiens, UniProt Q9BYF1)"
  inhibition at 100 µM: "0%"
- Molecule: "CC[C@H](C)[C@H](N)C(=O)N[C@@H](Cc1c[nH]cn1)C(=O)NCC(=O)N[C@@H](Cc1ccccc1)C(=O)O [IHGF] (H-IHGF-OH)"
  Assayed System: "ACE2 (Homo sapiens, UniProt Q9BYF1)"
  inhibition at 100 µM: "0%"
- Molecule: "CC[C@H](C)[C@H](N)C(=O)N[C@@H](Cc1c[nH]c2ccccc12)C(=O)N1CCC[C@H]1C(=O)N[C@@H](Cc1ccccc1)C(=O)O [IWPF] (H-IWPF-OH)"
  Assayed System: "ACE2 (Homo sapiens, UniProt Q9BYF1)"
  inhibition at 100 µM: "40%"
- Molecule: "C[C@H](N)C(=O)N[C@@H](Cc1c[nH]cn1)C(=O)N1CCC[C@H]1C(=O)N[C@@H](Cc1ccccc1)C(=O)O [AHPF] (H-AHPF-OH)"
  Assayed System: "ACE2 (Homo sapiens, UniProt Q9BYF1)"
  inhibition at 100 µM: "59%"
- Molecule: "CC[C@H](C)[C@H](N)C(=O)N[C@@H](Cc1c[nH]cn1)C(=O)N1CCC[C@H]1C(=O)N[C@@H](Cc1c[nH]c2ccccc12)C(=O)O [IHPW] (H-IHPW-OH)"
  Assayed System: "ACE2 (Homo sapiens, UniProt Q9BYF1)"
  inhibition at 100 µM: "57%"
- Molecule: "CC[C@H](C)[C@H](N)C(=O)N[C@@H](C)C(=O)N1CCC[C@H]1C(=O)N[C@@H](Cc1ccccc1)C(=O)O [IAPF] (H-IAPF-OH)"
  Assayed System: "ACE2 (Homo sapiens, UniProt Q9BYF1)"
  inhibition at 100 µM: "37%"
- Molecule: "CC[C@H](C)[C@H](N)C(=O)N[C@@H](Cc1c[nH]cn1)C(=O)N1CCC[C@H]1C(=O)N[C@H](C(=O)O)C(C)C [IHPV] (H-IHPV-OH)"
  Assayed System: "ACE2 (Homo sapiens, UniProt Q9BYF1)"
  inhibition at 100 µM: "18%"
- Molecule: "CC[C@H](C)[C@H](N)C(=O)N[C@H](C(=O)N1CCC[C@H]1C(=O)N[C@@H](Cc1ccccc1)C(=O)O)[C@@H](C)CC [IIPF] (H-IIPF-OH)"
  Assayed System: "ACE2 (Homo sapiens, UniProt Q9BYF1)"
  inhibition at 100 µM: "32%"
- Molecule: "CC[C@H](C)[C@H](N)C(=O)NCC(=O)N1CCC[C@H]1C(=O)N[C@@H](Cc1ccccc1)C(=O)O [IGPF] (H-IGPF-OH)"
  Assayed System: "ACE2 (Homo sapiens, UniProt Q9BYF1)"
  inhibition at 100 µM: "39%"
